- Test system: Aβ42
- assayProtocol: γ-secretase-modulating activity, Method 2: Aβ42 Alphalisa in supernatant of SKNBE2 cells carrying APP 695-wild type (Table 3b)
- Type: cell-based
- testSettings: overnight
Categorize each record by its IC50 using class 1 (below 40 nM), class 2 (40 nM to below 400 nM), class 3 (400 nM or more)

Exercise: In plain terms, what class is COc1cc(-c2nc(Nc3ccc(=O)n(C)c3)n(C)n2)ccc1-n1cnc(C)c1 [Compound 242] ?
Solution: class 3

Exercise: Class (by measured IC50) for COc1cc(Nc2nc(-c3ccc(-n4cnc(C)c4)c(OC)c3)nn2C)cc(C(F)(F)F)c1 [Compound 213]
Solution: class 1

Exercise: Class? Entry: COc1cc(-c2nc(Nc3cc(F)c(F)cc3C(F)(F)F)n(C)n2)ccc1-n1cnc(C)c1 [Compound 142]
Solution: class 2

Exercise: Hi, small favor: classify COc1cc(-c2nc(-c3ccc4ccccc4n3)n(C)n2)ccc1-n1cnc(C)c1 [Compound 326] by its IC50 when you get a moment.
Solution: class 3

Exercise: GET /class?item= COc1cc(-c2nc(Nc3cc(OC(F)(F)F)ccc3F)n(C)n2)ccc1-n1cnc(C)c1 [Compound 185]
Solution: class 1

Exercise: Band for the recorded IC50 of COc1cc(-c2nc(Nc3cccn(C)c3=O)n(C)n2)ccc1-n1cnc(C)c1 [Compound 243] ?
Solution: class 3

Exercise: Where would COc1cc(-c2nc3n(n2)CCCC3c2ccccc2OC(F)(F)F)ccc1-n1cnc(C)c1 (stereo not shown) [Compound 266] land among the classes by reported IC50?
Solution: class 2

Exercise: Class (by measured IC50) for COc1cc(-c2nc(Nc3ccc(F)c(F)c3)n(C)n2)ccc1-n1cnc(C)c1 [Compound 112]
Solution: class 2

Exercise: Into which category would you place COc1cc(-c2nc3n(n2)CCOC3c2ccc(F)cc2C)ccc1-n1cnc(C)c1 (stereo not shown) [Compound 166] ?
Solution: class 2

Exercise: Band assignment needed for COc1ccc(Cl)c(Nc2nc(-c3ccc(-n4cnc(C)c4)c(OC)c3)nn2C)c1 [Compound 189] please.
Solution: class 1

Exercise: Bin this entry: COc1cc(-c2nc(C)c(C)[nH]2)ccc1-n1cnc(C)c1 [Compound 25]
Solution: class 3

###

- Tested on: Aβ42
- assayProtocol: γ-secretase-modulating activity, Method 2: Aβ42 Alphalisa in supernatant of SKNBE2 cells carrying APP 695-wild type (Table 3b)
- Type: cell-based
- testSettings: overnight
pIC50: −log10 of the molar value.
Please use Met whenever pIC50 is not below 7, and Not met whenever it is.

Exercise: Quick check: does COc1ccccc1Nc1nc(-c2ccc(-n3cnc(C)c3)c(OC)c2)nn1C [Compound 187] have pIC50 greater than or equal to 7?
Solution: Not met

Exercise: Identify whether the reported pIC50 of the following molecule is 7 or greater: COc1cc(-c2nc(Nc3cc(C#N)ccc3F)n(C)n2)ccc1-n1cnc(C)c1 [Compound 226]
Solution: Not met

Exercise: Given CCOc1cc(C)c(Nc2nc(-c3ccc(-n4cnc(C)c4)c(OC)c3)nn2C)cc1C(C)C [Compound 328] , state whether its pIC50 is at least 7.
Solution: Met

Exercise: Can COc1cc(-c2nc3n(n2)CCC[C@H]3c2cc(C(F)(F)F)ccc2C)ccc1-n1cnc(C)c1 [Compound 341] be said to have pIC50 at or above 7?
Solution: Met

Exercise: hey, is pIC50 for this one >= 7? COc1ccc(Cl)cc1Nc1nc(-c2ccc(-n3cnc(C)c3)c(OC)c2)nn1C [Compound 192]
Solution: Met

Exercise: Form field: pIC50 at least 7? Entry: COc1nc(-c2nc(Nc3cccc(C(F)(F)F)c3)n(C)n2)ccc1-n1cnc(C)c1 [Compound 153]
Solution: Met

Exercise: Dear colleague, could you confirm whether COc1cc(-c2nc3c(-c4ccccc4)nccn3n2)ccc1-n1cnc(C)c1 [Compound 292] has pIC50 at or above 7?
Solution: Not met

Exercise: Form field: pIC50 at least 7? Entry: COc1cc(-c2nc3n(n2)CCCOC3c2ccc(F)cc2)ccc1-n1cnc(C)c1 (centres unmarked) [Compound 284]
Solution: Not met

The origin of these recorded values is patent US8946266B2.
